Each record here notes measured MIC50.
Tested on: Klebsiella pneumoniae
METHOD: Antimicrobial activity against Klebsiella pneumoniae expressing beta-lactamase CTX by Etest based on single determinant
Type: functional
State the answer as a number, implicitly in µg/mL.

Dear colleague, please send me the reported MIC50 for C[C@@H](O)[C@H]1C(=O)N2C(C(=O)O)=C(SCCNC=N)C[C@H]12 [IMIPENEM ANHYDROUS] when you can. 0.25

Dear colleague, please send me the reported MIC50 for CN(C)c1ccc(O)c2c1C[C@H]1C[C@H]3[C@H](N(C)C)C(O)=C(C(N)=O)C(=O)[C@@]3(O)C(O)=C1C2=O when you can. 4

Dear colleague, please send me the reported MIC50 for CN(C)c1cc(NC(=O)CNC(C)(C)C)c(O)c2c1C[C@H]1C[C@H]3[C@H](N(C)C)C(O)=C(C(N)=O)C(=O)[C@@]3(O)C(O)=C1C2=O when you can. 1

Dear colleague, please send me the reported MIC50 for NC[C@H]1O[C@H](O[C@H]2[C@H](O)[C@@H](O[C@H]3O[C@H](CO)[C@@H](O)[C@H](N)[C@H]3O)[C@H](N)C[C@@H]2N)[C@H](N)C[C@@H]1O when you can. 16

Dear colleague, please send me the reported MIC50 for CO/N=C(\C(=O)N[C@@H]1C(=O)N2C(C(=O)[O-])=C(C[N+]3(C)CCCC3)CS[C@H]12)c1csc(N)n1 [CEFEPIME] when you can. 16

Dear colleague, please send me the reported MIC50 for CC(C)(O/N=C(\C(=O)N[C@@H]1C(=O)N2C(C(=O)[O-])=C(C[n+]3ccccc3)CS[C@H]12)c1csc(N)n1)C(=O)O when you can. 32

Dear colleague, please send me the reported MIC50 for C[C@H]1COc2c(N3CCN(C)CC3)c(F)cc3c(=O)c(C(=O)O)cn1c23.C[C@H]1COc2c(N3CCN(C)CC3)c(F)cc3c(=O)c(C(=O)O)cn1c23.O when you can. 4
